Test system: 885512-296-R-J2-PDC complex spheroid viability
Assay: Anticancer human tumor 885512-296-R-J2-PDC patient-derived breast carcinoma cell line growth inhibition
Conditions: curve of first compound; second compound 3.16 µM
pIC50: −log10 of the molar value.

{"columns": ["COMPOUND", "VALUE RELATION SIGN", "pIC50"],
 "data": [
  ["COc1cc(C2c3cc4c(cc3C(OC3OC5COC(C)OC5C(O)C3O)C3COC(=O)C23)OCO4)cc(OC)c1O (centres undefined) + NC1CCC(NC2CC2c2ccccc2)CC1", "=", 7.11],
  ["COc1ccc([C@@H](O)c2cc(-c3ncnc4cc(N5CCOCC5)ccc34)c(F)cc2Cl)nn1 + NC1CCC(NC2CC2c2ccccc2)CC1", "=", 5.49],
  ["Cn1ncnc1C1c2n[nH]c(=O)c3cc(F)cc(c23)NC1c1ccc(F)cc1 (centres undefined) + NC1CCC(NC2CC2c2ccccc2)CC1", "=", 7.56],
  ["O=C(c1cc(Cc2n[nH]c(=O)c3ccccc23)ccc1F)N1CCN(C(=O)C2CC2)CC1 + NC1CC1c1ccc(-c2cccc(O)c2)cc1", "=", 6.18],
  ["Nc1ncn(C2CC(O)C(CO)O2)c(=O)n1 (centres undefined) + NC1CC1c1ccc(-c2cccc(O)c2)cc1", "=", 7.14],
  ["CC1COCCN1c1cc(-c2ccnn2C)c2ccnc(-c3ccn[nH]3)c2n1 (centres undefined) + NC1CCC(NC2CC2c2ccccc2)CC1", ">", 8.50],
  ["CC[C@@]1(O)C(=O)OCc2c1cc1n(c2=O)Cc2cc3c(CN(C)C)c(O)ccc3nc2-1 + NC1CC1c1ccc(-c2cccc(O)c2)cc1", "=", 9.10],
  ["COc1ccc([C@@H](O)c2cc(-c3ncnc4cc(N5CCOCC5)ccc34)c(F)cc2Cl)nn1 + NC1CC1c1ccc(-c2cccc(O)c2)cc1", "=", 5.84],
  ["O=C(C=Cn1cnc(-c2cc(C(F)(F)F)cc(C(F)(F)F)c2)n1)NNc1cnccn1 + NC1CC1c1ccc(-c2cccc(O)c2)cc1", ">", 8.50],
  ["O=C(c1cc(Cc2n[nH]c(=O)c3ccccc23)ccc1F)N1CCN(C(=O)C2CC2)CC1 + NC1CCC(NC2CC2c2ccccc2)CC1", "=", 6.23],
  ["COc1cc(Nc2ncc3c(n2)-c2ccc(Cl)cc2C(c2c(F)cccc2OC)=NC3)ccc1C(=O)O + NC1CC1c1ccc(-c2cccc(O)c2)cc1", ">", 8.50],
  ["O=C(C=Cc1cccc(S(=O)(=O)Nc2ccccc2)c1)NO + NC1CCC(NC2CC2c2ccccc2)CC1", "=", 7.15],
  ["CC(C)CC(NC(=O)CNC(=O)c1cc(Cl)ccc1Cl)B1OC(=O)CC(CC(=O)O)(C(=O)O)O1 (centres undefined) + NC1CCC(NC2CC2c2ccccc2)CC1", "=", 8.19],
  ["CC(C)c1c(-c2ccccc2)nc2c(C#N)c[nH]n2c1=O + NC1CCC(NC2CC2c2ccccc2)CC1", "<", 5.00]
]}

###

System: 885512-296-R-J2-PDC complex spheroid viability
Assay: Anticancer human tumor 885512-296-R-J2-PDC cell line growth inhibition;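 further: spheroids exposed to agents for 7 days before viability read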
Conditions: second compound 3.16 µM; first compound 1 µM; stronger effect = lower value
PROPERTY: viability, T/C (%)

{"columns": ["COMPOUND", "PROPERTY", "VALUE"],
 "data": [
  ["COc1ccc([C@@H](O)c2cc(-c3ncnc4cc(N5CCOCC5)ccc34)c(F)cc2Cl)nn1 + NC1CCC(NC2CC2c2ccccc2)CC1", "viability, T/C", 92.8],
  ["O=C(C=Cn1cnc(-c2cc(C(F)(F)F)cc(C(F)(F)F)c2)n1)NNc1cnccn1 + NC1CC1c1ccc(-c2cccc(O)c2)cc1", "viability, T/C", 0.63],
  ["O=C(C=Cn1cnc(-c2cc(C(F)(F)F)cc(C(F)(F)F)c2)n1)NNc1cnccn1 + NC1CCC(NC2CC2c2ccccc2)CC1", "viability, T/C", 3.58],
  ["CC(C)c1c(-c2ccccc2)nc2c(C#N)c[nH]n2c1=O + NC1CC1c1ccc(-c2cccc(O)c2)cc1", "viability, T/C", 108],
  ["O=C(c1cc(Cc2n[nH]c(=O)c3ccccc23)ccc1F)N1CCN(C(=O)C2CC2)CC1 + NC1CCC(NC2CC2c2ccccc2)CC1", "viability, T/C", 27.5],
  ["COc1cc(Nc2ncc3c(n2)-c2ccc(Cl)cc2C(c2c(F)cccc2OC)=NC3)ccc1C(=O)O + NC1CCC(NC2CC2c2ccccc2)CC1", "viability, T/C", 16.6],
  ["CC1COCCN1c1cc(-c2ccnn2C)c2ccnc(-c3ccn[nH]3)c2n1 (centres undefined) + NC1CCC(NC2CC2c2ccccc2)CC1", "viability, T/C", 4.98],
  ["Nc1ncn(C2CC(O)C(CO)O2)c(=O)n1 (centres undefined) + NC1CCC(NC2CC2c2ccccc2)CC1", "viability, T/C", 16.1],
  ["CC(C)c1c(-c2ccccc2)nc2c(C#N)c[nH]n2c1=O + NC1CCC(NC2CC2c2ccccc2)CC1", "viability, T/C", 145],
  ["CC1(C)CCC(CN2CCN(c3ccc(C(=O)NS(=O)(=O)c4ccc(NCC5CCOCC5)c([N+](=O)[O-])c4)c(Oc4cnc5[nH]ccc5c4)c3)CC2)=C(c2ccc(Cl)cc2)C1 + NC1CC1c1ccc(-c2cccc(O)c2)cc1", "viability, T/C", 68.4],
  ["Nc1ncn(C2CC(O)C(CO)O2)c(=O)n1 (centres undefined) + NC1CC1c1ccc(-c2cccc(O)c2)cc1", "viability, T/C", 13.4],
  ["COc1cc(Nc2ncc3c(n2)-c2ccc(Cl)cc2C(c2c(F)cccc2OC)=NC3)ccc1C(=O)O + NC1CC1c1ccc(-c2cccc(O)c2)cc1", "viability, T/C", 15.4],
  ["CC1COCCN1c1cc(C2(S(C)(=N)=O)CC2)nc(-c2ccnc3[nH]ccc23)n1 (centres undefined) + NC1CC1c1ccc(-c2cccc(O)c2)cc1", "viability, T/C", 9.16],
  ["COc1ccc([C@@H](O)c2cc(-c3ncnc4cc(N5CCOCC5)ccc34)c(F)cc2Cl)nn1 + NC1CC1c1ccc(-c2cccc(O)c2)cc1", "viability, T/C", 58.8]
]}
